Quick reference for IC50 (read off the curve) among some binders
Target: HLA-Cw6/ADAMTSL5-Abu on rhHLA-Cw6 expressing cells loaded with ADAM-Abu peptide (human), P10321
Supply the numeric figure in µg/mL, leaving out any unit text.

BINDER	IC50 (read off the curve), µg/mL
CW6B230 (antibody, V domains shown) VH: QVQLQESGPGLVKPSETLSLTCTVSGNSISNYYWSWIRQPAGKGLEWIGRIYITGNTNYNPSLKSRVTMSLDTSKNQFSLKLSSVTAADTAVYYCARLSGIDAFDIWGQGTMVTVSS VL: DIQMTQSPSTLSASVGDRVTFTCQASQDITKYLNWYQQKPGKAPKLLIYDASNLETGVPSRFSGSGSGTDFTFTISSLQPEDFATYYCQQYDDLPITFGQGTRLEIK	0.2

In: Sample CW6B229 (antibody, V domains shown) VH: QVQLQESGPGLVKPSETLSLTCTVSGNSIRSYYWSWIRQPAGKGLEWIGRIYISGNTNYNPSLKSRVTMSIDTSKNQFSLKLSSVTAADTAVFYCARLSGIDAFDIWGQGTMVTVSS VL: DIQMTQSPSSLSASVGDRVTITCQASQDISNYLNWYQQKPGKAPKLLIYDASNLETGVPSRFSGSGSGTDFTFTISSLQPEDFATYYCQQYDNLPITFGQGTRLEIK — what was its IC50 (read off the curve)?
Out: 0.2

In: Sample CW6B130 (antibody, V domains shown) VH: QLQLQESGPGLVKPSETLSLTCTVSGASISSINYYWGWIRQPPGKGLEWIGSFYYSGNTYYNPSLKSRVTISVDTSKNYFSLKLNSVTAADTAVYYCAREYYDSSGYYPFEPWGQGTLVTVSS VL: SYVLTQPPSVSVAPGQTARITCGGDNIGSESVHWYQQKPGQAPVLVVYDDTDRPSGIPERFSGSKSGTTATLTISWVEAGDEADYYCQVWDSSSDHVVFGGGTKLTVL — what was its IC50 (read off the curve)?
Out: 0.03
